measured on: Ubiquitin carboxyl-terminal hydrolase 1 (Homo sapiens) (UniProt O94782)
Sequence (O94782 whole entry, looked up): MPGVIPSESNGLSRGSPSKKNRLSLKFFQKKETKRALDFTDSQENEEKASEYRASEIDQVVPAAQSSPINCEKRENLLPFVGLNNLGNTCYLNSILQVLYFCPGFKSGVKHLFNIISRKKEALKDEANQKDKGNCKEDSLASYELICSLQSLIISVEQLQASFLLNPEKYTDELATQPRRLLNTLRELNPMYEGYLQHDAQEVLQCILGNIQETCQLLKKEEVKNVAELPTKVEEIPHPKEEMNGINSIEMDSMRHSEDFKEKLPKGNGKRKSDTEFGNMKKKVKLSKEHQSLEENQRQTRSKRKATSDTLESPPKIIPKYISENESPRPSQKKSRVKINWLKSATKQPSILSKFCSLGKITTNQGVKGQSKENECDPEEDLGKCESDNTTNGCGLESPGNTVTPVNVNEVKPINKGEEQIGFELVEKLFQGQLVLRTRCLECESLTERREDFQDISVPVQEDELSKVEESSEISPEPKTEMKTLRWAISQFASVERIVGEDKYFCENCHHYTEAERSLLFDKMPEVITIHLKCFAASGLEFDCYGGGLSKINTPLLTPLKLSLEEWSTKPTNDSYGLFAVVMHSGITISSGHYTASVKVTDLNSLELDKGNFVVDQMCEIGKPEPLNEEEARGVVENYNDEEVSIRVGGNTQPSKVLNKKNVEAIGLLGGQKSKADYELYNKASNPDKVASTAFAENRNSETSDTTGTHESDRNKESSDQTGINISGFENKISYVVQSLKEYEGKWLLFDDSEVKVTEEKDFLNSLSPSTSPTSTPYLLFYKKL
measurement protocol: Inhibitors of USP1/UAF1: Pilot qHTS (AID 504865);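 also: rhodamine fluorescence freed from ubiquitin-rhodamine substrate followed over time; top concentration of the series differs between compounds; nearly all actives have a fitted effect of over 35% in size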
settings: purified USP1/UAF1, Ub-rhodamine cleavage fluorescence; series mostly up to 114 µM
Inconclusive results are not listed. Active and inactive are the calls of the source. Calls follow the shape of the dose curve; as a rule, active = well fitted inhibition curve with a large enough effect; inconclusive = small, poorly fitted or top-dose-only effect; inactive = flat fitted curve, though single readings scatter.
recorded metric: outcome

compound | outcome
O=C(N/N=C\c1ccccc1O)c1ccccc1O | inactive
CC(N)=NCCC[C@H](N)C(=O)O | inactive
N[C@H](Cn1ccc(=O)n(Cc2ccccc2C(=O)O)c1=O)C(=O)O | inactive
CC[C@@H]1O[C@]2(C=C[C@@H]1C)C[C@H]1C[C@H](CC=C(C)[C@@H](O[C@@H]3C[C@H](OC)[C@H](O[C@@H]4C[C@H](OC)[C@H](O)[C@H](C)O4)[C@H](C)O3)[C@@H](C)C=CC=C3CO[C@@H]4[C@@H](O)C(C)=C[C@@H](C(=O)O1)[C@]34O)O2 | inactive

Batch: outcome for all items listed.
1. CCn1c(=O)[nH]c2ccccc21
2. NC(=O)CCCCn1ccc(NC(N)=NCC(F)(F)F)n1
3. CC1OC(OC2C(CO)OC(OC3C(CO)OC(O)C(O)C3O)C(O)C2O)C(O)C(O)C1NC1C=C(CO)C(O)C(O)C1O (centres undefined)
4. CN1C2CCCC1CC(NC(=O)c1nn(C)c3ccccc13)C2 (centres undefined)
5. O=C(O)c1c2ccccc2cc2ccccc12

(A)
1. inactive
2. inactive
3. inactive
4. inactive
5. inactive

====

measurement protocol: Primary qHTS for inhibitors of nuclear receptor binding SET domain protein 2 (NSD2) in an RCH-ACV wild type WT cells (2C) (AID 1645877); also: nearly all actives have a fitted effect of over 70% in size
settings: RCH-ACV (leukaemia line) NSD2 WT (2C) viability, CellTiter-Glo, 72 h; series mostly up to 44.9 µM
Inconclusive results are not listed. The source made the active and inactive calls. Calls follow the shape of the dose curve; as a rule, active = well fitted inhibition curve with a large enough effect; inconclusive = small, poorly fitted or top-dose-only effect; inactive = no such curve, though single readings can be large or run the other way.
Would you mind answering with one of these outcomes? active, inactive

Reference set, count: 2
compound | category label
Cc1nc(C)c2c(n1)N(Cc1ccc(-c3ccccc3-c3nn[nH]n3)cc1)C(=O)CC2 | inactive
BrC1C(Br)C(Br)C(Br)C(Br)C1Br (stereo not given) | inactive

(Q) Any idea what this test logged for `C=C1C(=O)O[C@@H]2[C@H]3O[C@]3(C)CC/C=C(\C)CC[C@@H]12` ?
(A) active

(Q) How did this test come out for `COc1ccc(C(=O)Nc2sc3c(c2C(N)=O)CCCC3)cc1OC` ?
(A) inactive

(Q) Called result for CSC(Cc1ccc(Cl)cc1)C(=O)Nc1ccc(Cl)cc1C(=O)O (stereo not given)
(A) inactive

(Q) Check the results log: what was the call for `CSc1cc2c(s1)c1cnn(Cc3ccccc3F)c(=O)c1n2C` ?
(A) inactive

(Q) Fill in: this test's call for O=C1O[C@H](C(O)CO)C(=O)C1=O (stereo not given in full) is ___
(A) inactive

====

System: astro
measurement protocol: Drug repurposing screens with cells derived from glioblastoma tumor samples (AID 1345199); also: nearly all actives have a fitted effect of over 40% in size
settings: viability, ATP luminescence, 48 h; series mostly up to 45.9 µM
Inconclusive results are not listed. Activity calls are given as the source filed them. Calls come from the whole dose curve; as a rule, active = well fitted inhibition curve with a large enough effect; inconclusive = small, poorly fitted or top-dose-only effect; inactive = flat fitted curve, though single readings scatter.
Please reply with one of these outcomes: active, inactive

Example cases with answers are listed next.
item smiles | measured on | category label
CN(CC(=O)N1CCOCC1)Cc1c(Cl)cccc1NC(=O)c1ccccc1 | astro | inactive
CC[C@@]1(O)C[C@H](O[C@H]2C[C@H](N(C)C)[C@H](O[C@H]3C[C@H](O)[C@H](O[C@H]4CCC(=O)[C@H](C)O4)[C@H](C)O3)[C@H](C)O2)c2c(cc3c(c2O)C(=O)c2c(O)cccc2C3=O)[C@H]1C(=O)OC | astro | active
CCNC(=O)[C@@H]1CCCN1C(=O)[C@H](CCCN=C(N)N)NC(=O)[C@H](CC(C)C)NC(=O)[C@@H](CC(C)C)NC(=O)[C@H](Cc1ccc(O)cc1)NC(=O)[C@H](CO)NC(=O)[C@H](Cc1c[nH]c2ccccc12)NC(=O)[C@H](Cc1cnc[nH]1)NC(=O)[C@@H]1CCC(=O)N1 | astro | inactive
CCN(CC)C(=O)c1cc(S(=O)(=O)Cc2ccccc2)c(N2CCC(c3ccccc3)CC2)cc1N(CC)CCN(C)C | astro | active
Nc1ccc(N)c([N+](=O)[O-])c1 | astro | inactive

Please examine the following record next.
(Q) What outcome does the record of this test show for `N[C@@H](C(=O)N[C@@H]1C(=O)N2C(C(=O)O)=C(CSc3cn[nH]n3)CS[C@H]12)c1ccc(O)cc1` ?
(A) inactive
